Recorded values, source ChEMBL document CHEMBL4251595.

Tested on: Penicillium chrysogenum
method: Antifungal activity against Penicillium chrysogenum assessed as zone of inhibition at 50 ug/well after 48 hrs by agar well diffusion method
Assay type: functional
conditionDetails: read-out: DIZ
zone of inhibition at 50 µg/disc vs 20 mm: at or above is satisfied, below is not satisfied.

>>> discretelabel("Cc1ccc(-c2onc(-c3ccccc3)c2S(=O)(=O)NC(=O)c2cccs2)cc1")
"not satisfied"
>>> discretelabel("Cc1ccc(-c2onc(-c3ccccc3)c2S(=O)(=O)NC(=O)c2ccc(Cl)s2)cc1")
"not satisfied"
>>> discretelabel("O=C(NS(=O)(=O)c1c(-c2ccccc2)noc1-c1ccccc1)c1ccc(Cl)s1")
"not satisfied"
>>> discretelabel("O=C(NS(=O)(=O)/C=C/c1ccccc1)c1ccc(Cl)s1")
"not satisfied"
>>> discretelabel("O=C(NS(=O)(=O)c1c(-c2ccccc2)noc1-c1ccc([N+](=O)[O-])cc1)c1ccc(Cl)s1")
"satisfied"
>>> discretelabel("O=C(NS(=O)(=O)c1c(-c2ccccc2)noc1-c1ccc([N+](=O)[O-])cc1)c1cccs1")
"satisfied"
>>> discretelabel("O=C(NS(=O)(=O)c1c(-c2ccccc2)noc1-c1ccccc1)c1cccs1")
"not satisfied"
>>> discretelabel("O=C(NS(=O)(=O)c1c(-c2ccccc2)nn(-c2ccccc2)c1-c1ccc([N+](=O)[O-])cc1)c1ccc(Cl)s1")
"satisfied"
>>> discretelabel("O=C(NS(=O)(=O)c1c(-c2ccccc2)nn(-c2ccccc2)c1-c1ccc([N+](=O)[O-])cc1)c1cccs1")
"satisfied"
>>> discretelabel("CC(=O)N1CCN(c2ccc(OCC3COC(Cn4ccnc4)(c4ccc(Cl)cc4Cl)O3)cc2)CC1 (centres undefined)")
"satisfied"
>>> discretelabel("O=C(NS(=O)(=O)/C=C/c1ccc([N+](=O)[O-])cc1)c1ccc(Cl)s1")
"satisfied"
>>> discretelabel("O=C(NS(=O)(=O)/C=C/c1ccc([N+](=O)[O-])cc1)c1cccs1")
"satisfied"
>>> discretelabel("O=C(NS(=O)(=O)c1c(-c2ccccc2)nn(-c2ccccc2)c1-c1ccccc1)c1ccc(Cl)s1")
"not satisfied"
>>> discretelabel("O=C(NS(=O)(=O)c1c(-c2ccccc2)nn(-c2ccccc2)c1-c1ccccc1)c1cccs1")
"not satisfied"

====

Test system: Klebsiella pneumoniae
method: Antimicrobial activity against Klebsiella pneumoniae assessed as zone of inhibition at 100 ug/well after 24 hrs by agar well diffusion method
Format: functional
conditionDetails: read-out: DIZ
zone of inhibition at 100 µg/disc vs 20 mm: at or above is fulfilled, below is not fulfilled.

>>> discretelabel("O=C(NS(=O)(=O)c1c(-c2ccccc2)nn(-c2ccccc2)c1-c1ccc([N+](=O)[O-])cc1)c1ccc(Cl)s1")
"fulfilled"
>>> discretelabel("O=C(NS(=O)(=O)C1C(c2ccccc2)=NOC1c1ccccc1)c1cccs1 (stereo not given)")
"not fulfilled"
>>> discretelabel("Cc1ccc(/C=C/S(=O)(=O)NC(=O)c2ccc(Cl)s2)cc1")
"not fulfilled"
>>> discretelabel("O=C(N[C@H](CO)[C@H](O)c1ccc([N+](=O)[O-])cc1)C(Cl)Cl [CHLORAMPHENICOL]")
"fulfilled"
>>> discretelabel("O=C(NS(=O)(=O)/C=C/c1ccc([N+](=O)[O-])cc1)c1ccc(Cl)s1")
"fulfilled"

====

System: Bacillus subtilis
method: Antimicrobial activity against Bacillus subtilis assessed as zone of inhibition at 75 ug/well after 24 hrs by agar well diffusion method
Assay type: functional
conditionDetails: read-out: DIZ
Listed next: entries and their corresponding zone of inhibition at 75 µg/disc.
property: zone of inhibition at 75 µg/disc (mm)

>>> measuredresult("O=C(NS(=O)(=O)C1C(c2ccccc2)=NN(c2ccccc2)C1c1ccc([N+](=O)[O-])cc1)c1cccs1 (stereo not drawn)")
14
>>> measuredresult("O=C(NS(=O)(=O)c1c(-c2ccccc2)noc1-c1ccccc1)c1cccs1")
26
>>> measuredresult("O=C(NS(=O)(=O)C1C(c2ccccc2)=NOC1c1ccccc1)c1cccs1 (stereo not drawn)")
10
>>> measuredresult("Cc1ccc(-c2c(S(=O)(=O)NC(=O)c3ccc(Cl)s3)c(-c3ccccc3)nn2-c2ccccc2)cc1")
20
>>> measuredresult("O=C(NS(=O)(=O)c1c(-c2ccccc2)nn(-c2ccccc2)c1-c1ccc([N+](=O)[O-])cc1)c1cccs1")
36
>>> measuredresult("O=C(NS(=O)(=O)c1c(-c2ccccc2)nn(-c2ccccc2)c1-c1ccccc1)c1ccc(Cl)s1")
28
>>> measuredresult("O=C(NS(=O)(=O)c1c(-c2ccccc2)noc1-c1ccccc1)c1ccc(Cl)s1")
32
>>> measuredresult("O=C(NS(=O)(=O)/C=C/c1ccc([N+](=O)[O-])cc1)c1cccs1")
32
>>> measuredresult("O=C(N[C@H](CO)[C@H](O)c1ccc([N+](=O)[O-])cc1)C(Cl)Cl")
34
>>> measuredresult("O=C(NS(=O)(=O)C1C(c2ccccc2)=NOC1c1ccccc1)c1ccc(Cl)s1 (stereo not drawn)")
12
>>> measuredresult("O=C(NS(=O)(=O)C1C(c2ccccc2)=NN(c2ccccc2)C1c1ccccc1)c1ccc(Cl)s1 (stereo not drawn)")
11
>>> measuredresult("O=C(NS(=O)(=O)c1c(-c2ccccc2)nn(-c2ccccc2)c1-c1ccc([N+](=O)[O-])cc1)c1ccc(Cl)s1")
38
>>> measuredresult("O=C(NS(=O)(=O)/C=C/c1ccccc1)c1ccc(Cl)s1")
24
>>> measuredresult("O=C(NS(=O)(=O)/C=C/c1ccccc1)c1cccs1")
21
>>> measuredresult("O=C(NS(=O)(=O)c1c(-c2ccccc2)noc1-c1ccc([N+](=O)[O-])cc1)c1cccs1")
38
>>> measuredresult("Cc1ccc(-c2c(S(=O)(=O)NC(=O)c3cccs3)c(-c3ccccc3)nn2-c2ccccc2)cc1")
18
>>> measuredresult("Cc1ccc(-c2onc(-c3ccccc3)c2S(=O)(=O)NC(=O)c2cccs2)cc1")
20
>>> measuredresult("O=C(NS(=O)(=O)C1C(c2ccccc2)=NOC1c1ccc([N+](=O)[O-])cc1)c1ccc(Cl)s1 (stereo not drawn)")
19
